- assay details: self-splicing fitness, log relative to wild type (ln ratio); higher = more splicing; Tetrahymena group I intron in knt gene, E. coli kanamycin selection, DiMSum; sequences stand for … in CUCUCU…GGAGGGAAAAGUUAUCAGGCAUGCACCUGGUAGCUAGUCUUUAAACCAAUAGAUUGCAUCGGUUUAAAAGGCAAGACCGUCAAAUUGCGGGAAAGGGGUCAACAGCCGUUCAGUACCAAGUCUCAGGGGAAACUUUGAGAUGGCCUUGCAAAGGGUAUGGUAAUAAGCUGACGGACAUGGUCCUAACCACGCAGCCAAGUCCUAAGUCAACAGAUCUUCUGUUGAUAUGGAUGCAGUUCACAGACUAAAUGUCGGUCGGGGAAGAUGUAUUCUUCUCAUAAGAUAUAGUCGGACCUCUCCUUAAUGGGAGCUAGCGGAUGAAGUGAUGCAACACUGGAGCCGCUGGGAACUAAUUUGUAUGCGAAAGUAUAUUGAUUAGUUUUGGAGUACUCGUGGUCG;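 further: selection with 25 µg/mL kanamycin versus none on LB agar overnight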
- protocol conditions: 37 °C
Outcome: 1 for self-splicing fitness (ln) of at least -2; 0 for anything lower.

Evaluate GAGCAGCAAUAUUACGAGCA : self-splicing fitness (ln) at minimum -2? 1

Exam item: decide whether the reported self-splicing fitness (ln) for CACGAGCAAUAUUACGGCUU is at least -2. 0

Entry UGAAAGCAAUAUUACGCGGA : is its self-splicing fitness (ln) no less than -2? 1

Is reported self-splicing fitness (ln) greater than or equal to -2 here: CGACAGCAAUAUUACGCACC 1

hey, is self-splicing fitness (ln) for this one >= -2? UCCAAGCAAUAUUACGGCUG 0

Does the reported self-splicing fitness (ln) for CAGCAGCAAUAUUACGGGAA fall at or above the -2 mark? 1

Please tell me: is the sequence CUUCAGCAAUAUUACGUAGC at or over -2 in terms of self-splicing fitness (ln)? 0

In plain terms: is recorded self-splicing fitness (ln) at least -2 for GUGUAGCAAUAUUACGGAGU ? 0

Reported self-splicing fitness (ln) reaches at least -2 for CGCAAGCAAUAUUACGUCGU ? 0

Exam item: decide whether the reported self-splicing fitness (ln) for GCGUAGCAAUAUUACGCUCG is at least -2. 1

Evaluate UUGGAGCAAUAUUACGGGAC : self-splicing fitness (ln) at minimum -2? 1

Answer whether self-splicing fitness (ln) of CGUGAGCAAUAUUACGCGAA is greater than or equal to -2. 0

Exam item: decide whether the reported self-splicing fitness (ln) for GUUGAGCAAUAUUACGACGU is at least -2. 1

Textbook exercise: given the entry UUACAGCAAUAUUACGUCUC , state whether its self-splicing fitness (ln) is greater than or equal to -2. 0

Has UGCUAGCAAUAUUACGAUAG a recorded self-splicing fitness (ln) greater than or equal to -2? 1

For this sequence, is measured self-splicing fitness (ln) -2 or higher? UCUCAGCAAUAUUACGUGAC 1

====

- assay details: self-splicing fitness, log relative to wild type (ln ratio); higher = more splicing; Tetrahymena group I intron in knt gene, E. coli kanamycin selection, DiMSum; sequences stand for … in CUCUCU…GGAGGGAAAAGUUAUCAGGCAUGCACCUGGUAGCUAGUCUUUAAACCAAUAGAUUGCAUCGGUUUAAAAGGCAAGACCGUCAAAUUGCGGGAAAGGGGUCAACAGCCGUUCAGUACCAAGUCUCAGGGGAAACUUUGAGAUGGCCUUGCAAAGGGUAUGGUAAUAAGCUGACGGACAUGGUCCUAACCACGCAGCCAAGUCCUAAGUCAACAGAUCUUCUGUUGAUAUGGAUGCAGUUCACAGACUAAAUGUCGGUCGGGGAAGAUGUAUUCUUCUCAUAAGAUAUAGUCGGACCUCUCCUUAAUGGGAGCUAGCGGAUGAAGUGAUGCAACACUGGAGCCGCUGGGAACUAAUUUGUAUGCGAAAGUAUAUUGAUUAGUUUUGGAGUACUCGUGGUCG
- protocol conditions: 30 °C
Outcome label depends on self-splicing fitness (ln) relative to -2: at/above gives True, below gives False.

Please check the record GACAAGCAAUAUUACGGUGC and state if its self-splicing fitness (ln) is at or above -2. False

Textbook exercise: given the entry UUAGAGCAAUAUUACGGAGA , state whether its self-splicing fitness (ln) is greater than or equal to -2. True

Does UGCGAGCAAUAUUACGCUGU have a reported self-splicing fitness (ln) of at least -2? False

Please indicate if the recorded self-splicing fitness (ln) for AUCUAGCAAUAUUACGCUAA meets or exceeds -2. False

Reported self-splicing fitness (ln) at or above -2? AUACAGCAAUAUUACGGCUA True

For this sequence, is measured self-splicing fitness (ln) -2 or higher? GGCUAGCAAUAUUACGAUGA True

Does the reported self-splicing fitness (ln) for CACUAGCAAUAUUACGUCGG fall at or above the -2 mark? True

// inclusive: self-splicing fitness (ln) at least -2? input: GGUUAGCAAUAUUACGCGAU False

Hi team, for ACAGAGCAAUAUUACGUUGG , is the recorded self-splicing fitness (ln) at or above -2? False

Exam item: decide whether the reported self-splicing fitness (ln) for GGAAAGCAAUAUUACGUAGU is at least -2. False

Is self-splicing fitness (ln) for GCCCAGCAAUAUUACGGUGA at or above -2? True

Is it the case that CGAGAGCAAUAUUACGUUUU has self-splicing fitness (ln) reaching or exceeding -2? False

Check the entry GGAUAGCAAUAUUACGGGCU : does self-splicing fitness (ln) equal or exceed -2? False

Decide: is the reported value of self-splicing fitness (ln) for UAAAAGCAAUAUUACGGCCU equal to or greater than -2? True

Could you please find out whether CCUAAGCAAUAUUACGACCG has self-splicing fitness (ln) that meets -2 or exceeds it? True

For this sequence, is measured self-splicing fitness (ln) -2 or higher? GCUGAGCAAUAUUACGUCCU True

Threshold query (self-splicing fitness (ln) >= -2) on ACUAAGCAAUAUUACGACAU True

Could you tell me if the measured self-splicing fitness (ln) of GAAUAGCAAUAUUACGGUCA reaches -2 or more? True

Check this sequence for self-splicing fitness (ln) at or above -2: UUAAAGCAAUAUUACGGACG True

Answer whether self-splicing fitness (ln) of AGGUAGCAAUAUUACGAAAA is greater than or equal to -2. False

Does CUGCAGCAAUAUUACGUCGG have a reported self-splicing fitness (ln) of at least -2? False

I'd appreciate it if you could say whether ACACAGCAAUAUUACGGUAC has self-splicing fitness (ln) at least equal to -2. False

hey, is self-splicing fitness (ln) for this one >= -2? UACGAGCAAUAUUACGGGUA True

Given the entry GAUAAGCAAUAUUACGAUAG , answer whether its self-splicing fitness (ln) meets or surpasses -2. True

State whether the measured self-splicing fitness (ln) reaches -2, counting equality as reaching it, for GUUCAGCAAUAUUACGCAUC True

Evaluate CGCCAGCAAUAUUACGACCC : self-splicing fitness (ln) at minimum -2? True

Would you say UCCCAGCAAUAUUACGUGCG shows self-splicing fitness (ln) at minimum -2? False

Evaluate ACACAGCAAUAUUACGCUGG : self-splicing fitness (ln) at minimum -2? True

Textbook exercise: given the entry AUACAGCAAUAUUACGCACG , state whether its self-splicing fitness (ln) is greater than or equal to -2. False

Form field: self-splicing fitness (ln) at least -2? Entry: CAGUAGCAAUAUUACGACCG True

Could you tell me if the measured self-splicing fitness (ln) of ACCGAGCAAUAUUACGGGAU reaches -2 or more? False

Could you verify whether the entry CUACAGCAAUAUUACGCUCU shows self-splicing fitness (ln) of no less than -2? False

Determine whether this sequence has self-splicing fitness (ln) no lower than -2: AAAUAGCAAUAUUACGCCCU True

Is self-splicing fitness (ln) at least -2? Consider UCACAGCAAUAUUACGAUAG False

====

- assay details: self-splicing fitness, log relative to wild type (ln ratio); higher = more splicing; Tetrahymena group I intron in knt gene, E. coli kanamycin selection, DiMSum; sequences stand for … in CUCUCU…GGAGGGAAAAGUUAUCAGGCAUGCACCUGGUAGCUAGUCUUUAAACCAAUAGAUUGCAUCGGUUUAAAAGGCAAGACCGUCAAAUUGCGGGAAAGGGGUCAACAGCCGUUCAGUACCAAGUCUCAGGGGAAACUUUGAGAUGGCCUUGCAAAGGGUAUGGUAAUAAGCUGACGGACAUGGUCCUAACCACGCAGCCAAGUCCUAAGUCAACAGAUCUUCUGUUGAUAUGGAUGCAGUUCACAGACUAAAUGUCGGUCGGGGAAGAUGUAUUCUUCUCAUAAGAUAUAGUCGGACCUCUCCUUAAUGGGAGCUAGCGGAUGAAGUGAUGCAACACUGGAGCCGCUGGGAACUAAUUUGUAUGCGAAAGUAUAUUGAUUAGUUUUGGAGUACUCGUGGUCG
- protocol conditions: 30 °C
recorded endpoint: self-splicing fitness (ln)

Value lookup for self-splicing fitness (ln); key = CAUCAGCAAUAUUACGUUUC -2.76

Look up self-splicing fitness (ln): GCUCAGCAAUAUUACGGCAU -2.29

Fill in: self-splicing fitness (ln) of GAGAAGCAAUAUUACGGACC is ___ -0.43

Consider the sequence CGCAAGCAAUAUUACGUAUG and give its measured self-splicing fitness (ln). -2.25

Please give the measured self-splicing fitness (ln) for this sequence: AUGUAGCAAUAUUACGGCAG -0.715

Give its self-splicing fitness (ln) value. Item: GUCGAGCAAUAUUACGACUA -1.67

// returns reported self-splicing fitness (ln) for input ACUCAGCAAUAUUACGAGGA -1.67

Which value of self-splicing fitness (ln) has been reported for CUGAAGCAAUAUUACGGAUG in the records? -2.18

Using the record for UGAAAGCAAUAUUACGCGGG , report its self-splicing fitness (ln). -2.8

Can you share its self-splicing fitness (ln)? I mean this sequence: CACCAGCAAUAUUACGGAAG -0.975

What does the record list as self-splicing fitness (ln) for UGCUAGCAAUAUUACGCAUA ? -2.58

Query (sequence): ACCAAGCAAUAUUACGACAA ; field requested: self-splicing fitness (ln) -2.14

Quick check: self-splicing fitness (ln) of GUGAAGCAAUAUUACGAUGA ? -0.639

What self-splicing fitness (ln) value was documented for this sequence, CUAAAGCAAUAUUACGCGAA ? -3.71

May I ask what self-splicing fitness (ln) has been recorded for CCCAAGCAAUAUUACGCCGG ? -3.22

Look at this sequence and give its reported self-splicing fitness (ln). UUGUAGCAAUAUUACGCUAG -2.06

Name the reported self-splicing fitness (ln) value associated with the sequence AGCGAGCAAUAUUACGUAAA -2.53

Can you look up the measured self-splicing fitness (ln) of CGUAAGCAAUAUUACGUCAU for me? -3.23

Record request: self-splicing fitness (ln) value, item CGUCAGCAAUAUUACGUGUC -3.72

Which value of self-splicing fitness (ln) has been reported for GUAUAGCAAUAUUACGUUUU in the records? -1.97

Need self-splicing fitness (ln), item CGUUAGCAAUAUUACGAGUA -3.68

Recorded self-splicing fitness (ln) for ACCCAGCAAUAUUACGUGCC , please? -1.98

I would be grateful if you could share the reported self-splicing fitness (ln) for ACAUAGCAAUAUUACGUACC . -0.809

What does the data say about its self-splicing fitness (ln)? Entry: GAGAAGCAAUAUUACGUCCA -0.235

Would you kindly share the measured self-splicing fitness (ln) for CCCUAGCAAUAUUACGCGUC ? -3.35

For the sequence shown here, GCUGAGCAAUAUUACGCUAA , give the reported self-splicing fitness (ln). -3.04

self-splicing fitness (ln) lookup needed for AGAAAGCAAUAUUACGGCCU , thanks. 0.484

Look up self-splicing fitness (ln) for this sequence: UUUGAGCAAUAUUACGUAUA -2.78

Find the recorded self-splicing fitness (ln) belonging to GAUUAGCAAUAUUACGACGA and report it. -1.23

Tell me the measured self-splicing fitness (ln) of ACACAGCAAUAUUACGACCC , please. -0.35

self-splicing fitness (ln) for UUGUAGCAAUAUUACGUAAA ? -1.72

Name the recorded self-splicing fitness (ln) for CGGGAGCAAUAUUACGGGUA . -2.54

What self-splicing fitness (ln) value was documented for this sequence, AGUUAGCAAUAUUACGAAAA ? -2.79

Could you share which self-splicing fitness (ln) value was measured for UUUCAGCAAUAUUACGCUAG ? -0.789
